Task for the reader: assign each of the following compounds its reported melting point.
Give bare numbers, in °C.

Field: example entries. Status: answers known.
- compound: "O=C(OCCOC(=O)C(Cl)(Cl)Cl)C(Cl)(Cl)Cl"
  valueUnits: "°C"
  melting point: 40
- compound: "Cc1cc(C)n2nc(N)c(/N=N/c3cccnc3)c2n1"
  valueUnits: "°C"
  melting point: 245
- compound: "N#C/C(=C\\c1ccc(Cl)cc1Cl)c1nc2ccccc2[nH]1"
  valueUnits: "°C"
  melting point: 249
- compound: "CCN(CCO)c1cccc(C)c1"
  valueUnits: "°C"
  melting point: -19

// for each compound below, give its melting point
1. CCOC(=O)C=Cc1ccc(N=[N+]([O-])c2ccc(C=CC(=O)OCC)cc2)cc1
2. C=C1C(=O)C23C(OC(C)=O)CC4C(C)(C)CCC(OC(C)=O)C4(C)C2C(OC(C)=O)CC12OC(C)(C)OC23 (centres undefined)

1: 141; 2: 259

// for each compound below, give its melting point
1. COc1ccc(-c2onc(C(=O)c3cccs3)c2S(=O)(=O)c2ccccc2)cc1
2. CC(C)N1CSc2nnc(-c3cccnc3)n2C1

1. 120
2. 289

// for each compound below, give its melting point
1. c1ccc2cc3cc4ccccc4cc3cc2c1
2. Cn1ccccc1=S
3. CCCc1ccccc1/C=N/Nc1ccc([N+](=O)[O-])cc1[N+](=O)[O-]
4. O=C(Oc1ccc2ccccc2c1)c1cccc(S(=O)(=O)Oc2ccc3ccccc3c2)c1
5. Fc1ccc(Br)c2ccccc12

357
89.5
228
172
35

###

Task for the reader: assign each of the following compounds its reported melting point.
Give bare numbers, in °C.

Field: example entries. Status: answers known.
- compound: "COc1cc2nc[nH]c(=O)c2cc1OC"
  melting point / °C: 250
- compound: "CCCCCCCCCCCCCCCCCC(=O)OC(C)C"
  melting point / °C: 28
- compound: "COc1cc(O)cc(OC)c1"
  melting point / °C: 46
- compound: "CC12C=CC(=O)C=C1CCC1C2CCC2(C)C1CCC2(C)O (stereo unspecified)"
  melting point / °C: 164
- compound: "N#C/C(=N\\Nc1c(Br)cc(Br)cc1Br)c1nc2ccccc2[nH]1"
  melting point / °C: 270

// for each compound below, give its melting point
1. CC12CCC(C(OC(=O)c3ccc([N+](=O)[O-])cc3)=CC1=O)C2(C)C (stereo unspecified)
2. CC(=O)OC[C@H]1O[C@@H](O[C@H]2[C@H](OC(C)=O)[C@@H](OC(C)=O)[C@@H](OC(C)=O)O[C@@H]2COC(C)=O)[C@H](OC(C)=O)[C@@H](OC(C)=O)[C@@H]1OC(C)=O
3. CCCCCCCCCCCCCC(=O)OCc1ccccc1

[121, 230, 20.5]

###

outcomeMeasure: melting point (°C)
Answers are plain numbers, in °C.

Field: example entries. Status: answers known.
- compound: "O=S(=O)(Cl)c1ccc(C(F)(F)F)cc1"
  valueUnits: "°C"
  melting point: 31
- compound: "N#CCc1cc(Cl)ccc1[N+](=O)[O-]"
  valueUnits: "°C"
  melting point: 87
- compound: "Oc1ccc(Cl)cc1Sc1cc(Cl)ccc1O"
  valueUnits: "°C"
  melting point: 174
- compound: "C/C(CC(C)c1ccc(C)cc1)=N\\NC(N)=O (stereo unspecified)"
  valueUnits: "°C"
  melting point: 146
- compound: "Nc1nc(N)c2nc(-c3ccccc3)c(N)nc2n1"
  valueUnits: "°C"
  melting point: 316

// for each compound below, give its melting point
1. OC(c1ccc(F)cc1)C(O)c1ccc(F)cc1 (stereo unspecified)
2. Cc1cc(Cl)ccc1N
3. Brc1ccncc1
4. O=C1NC(=O)C(=Cc2ccc(Cl)cc2)C(=O)N1
5. O=C1CSC2(CCN(CCCN3c4ccccc4Sc4ccc(Cl)cc43)CC2)N1
6. Nc1c(Br)cc(F)c(Cl)c1Br
7. O=C(O)c1cc(Cl)c(C(=O)O)cc1Cl

153
30.3
0.5
243
155
98
306

// for each compound below, give its melting point
1. NCC(O)CC(=O)O (racemic)
2. Cc1c(C)n(C(=O)c2ccccc2)c2ccccc12

1: 202; 2: 98

Give recorded melting point. `C#CCCCCCC` -60

###

outcomeMeasure: melting point (°C)
Numbers only, in °C.

Field: example entries. Status: answers known.
- molSmiles: "O=C(O)CCSc1ccc(Br)cc1"
  melting point (°C): 111
- molSmiles: "O=S(=O)(Cl)c1cccc(S(=O)(=O)Cl)c1"
  melting point (°C): 59

// for each compound below, give its melting point
1. Nc1cn[nH]c1
2. O=C(c1ccc(F)cc1)C1CCN(CCn2c(=O)[nH]c3ccccc3c2=O)CC1
3. CCCCCCCCCCCCCCCCCCCC(=O)OCC
4. C=CCC1(CC(C)C)C(=O)NC(=O)NC1=O
5. O=C(/C=C/c1ccccc1)Oc1ccc(/C=C/C(=O)c2ccccc2)cc1

1. 81
2. 231
3. 50
4. 138
5. 158

###

outcomeMeasure: melting point

- compound: "Cn1c(=O)c(C2=NNC(=O)C2)c(O)c2ccccc21"
  melting point: "287 °C"
- compound: "COC(=O)c1ccc2nccnc2c1"
  melting point: "99 to 100 °C"
- compound: "CCCCOC(=O)CC(CC(=O)OCCCC)(OC(C)=O)C(=O)OCCCC"
  melting point: "-59 °C"

// for each compound below, give its melting point
1. N#Cc1ccccc1S(=O)(=O)Cl
2. CCCC(=O)Nc1ccc(OCC(O)CNC(C)C)c(C(C)=O)c1 (configuration not stated)
3. OC1(c2ccccc2)c2ccccc2-c2ccccc21
4. COc1nsc(Nc2ccc(Cl)cc2)n1
5. CCCCCCCCCCCCCCCCCCOC(C)=O

["69 to 70 °C", "119 °C", "107 to 110 °C", "247 to 249 °C", "34.5 °C"]

###

outcomeMeasure: melting point

Field: example entries. Status: answers known.
- compound: "CCCCCCCCCCCCCC=CC(O)C(CO)NC(=O)CCCCCCCCCCCCCCC (stereo not given)"
  observedMeasurement: "94 to 95 °C"
- compound: "O=C1c2ccccc2C(=C2c3ccccc3C(=O)c3ccccc32)c2ccccc21"
  observedMeasurement: "300 °C"
- compound: "ON=CNc1ncccn1"
  observedMeasurement: "184 to 186 °C"
- compound: "O=P(O)(O)CCN(CP(c1ccccc1)c1ccccc1)CP(c1ccccc1)c1ccccc1"
  observedMeasurement: "146 to 148 °C"

Okay, now this compound:
Give recorded melting point. `O=Cc1ccc2oc(C(=O)c3ccc(Br)cc3)cc2c1` 177 to 178 °C

###

Task for the reader: assign each of the following molecules its reported melting point.
One number for each entry, in °C.

Field: example entries. Status: answers known.
- molecule: "O=C(O)c1c(Cl)c(Cl)c(Cl)c(Cl)c1C(=O)O"
  observedMeasurement: 98
- molecule: "CCCc1cc(C(N)=S)ccn1"
  observedMeasurement: 137
- molecule: "O=[N+]([O-])c1ccc(N=Nc2ccccc2)cc1"
  observedMeasurement: 133

// for each molecule below, give its melting point
1. Cc1c(NC(=O)C(F)(F)C(F)(F)C(F)(F)C(F)(F)C(F)(F)C(F)(F)C(F)(F)C(F)(F)F)c(=O)n(-c2ccccc2)n1C
2. O=C(c1ccccc1)c1cccnc1
3. Oc1cccc(F)c1F

[177, 38, 36]

// for each molecule below, give its melting point
1. Cc1csc(NS(=O)(=O)c2ccc(N)cc2)n1
2. NC(=O)C(Cl)(Cl)Cl
3. Cc1cc(C)n(C)n1
4. NS(=O)(=O)c1ccc(SCCCO)cc1
5. Cc1cccc(/N=N/c2c(N)nn3c(C(F)(F)F)cc(C)nc23)c1
6. Oc1ccc2c(c1)C13CCCCC1(O)C(C2)N(CC1CCC1)CC3 (stereo not given)
7. Fc1ccc(C(Br)(c2ccc(F)cc2)c2ccc(F)cc2)cc1
8. Clc1nc(Cl)c(Cl)c(Cl)n1

1. 237
2. 142
3. 35.5
4. 117
5. 209
6. 216
7. 109
8. 69

Give recorded melting point. `c1ccc(C2CCNCC2)cc1` 60.5

###

The label MET is reserved for melting point strictly under 200 °C; NOT MET covers values equal to or above it.

- molecule: "Cc1ccc(SSc2ccc(C)cc2)cc1"
  category: "MET"
- molecule: "O=C(C[N+](=O)[O-])c1cccc(C(=O)C[N+](=O)[O-])c1"
  category: "MET"
- molecule: "CCC1CN2CCC1CC2C(O)c1ccnc2ccccc12 (stereo not drawn)"
  category: "NOT MET"
- molecule: "CC1(C)OC(C(O)CO)C(C(O)CO)O1 (stereo not drawn)"
  category: "MET"
- molecule: "CCO[Si](C)(C)OCC"
  category: "MET"

In the following, a different molecule is considered.
State whether 200 °C exceeds melting point recorded for `NC(=O)c1ccc(Cl)nc1` . NOT MET
